SUBJECT OF TEST: T1, human IL-2Rβ (human, UniProt P14784 27-240, limits assumed)
T1 construct: recombinant protein, coated or immobilised; also called hu IL-2R; IL-2R beta
T1 sequence: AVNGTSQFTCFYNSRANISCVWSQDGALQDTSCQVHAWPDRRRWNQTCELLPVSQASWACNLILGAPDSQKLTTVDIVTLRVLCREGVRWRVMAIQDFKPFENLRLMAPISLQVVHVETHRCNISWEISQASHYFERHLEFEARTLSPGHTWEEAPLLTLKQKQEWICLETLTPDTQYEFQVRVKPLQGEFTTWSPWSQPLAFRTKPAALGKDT
EXPERIMENT DESCRIPTION: P.E. ELISA, coated protein
OBSERVATION TYPE: P.E. binding ELISA OD (OD450 nm)
Use OD450 nm as the unit, but write only the number.

// solved cases for P.E. binding ELISA OD follow
// query P.E. binding ELISA OD value for entry FJ1427_P035MP02B02 (VHH, soluble VHH in periplasmic extract; also called clone nr) VHH: EVQLVESGGTLVQTGGSLRLSCVVSGSHFISDVMGWYRQVPGKQRELVADMADGGSAKYGDSVKGRFTIVRDSVKNTVYLQMSSLNPEDTGVYYCKAGLWIKGRHSDYWGQGTQVTVTS
0.343

# repeat for FJ1427_P035MP06A07 (VHH, soluble VHH in periplasmic extract; also called 26-MP06A07; clone nr) VHH: QVQLQESGGGLVQAGGSLRLSCAASGDVFVRYTMAWFRQAPGKEREFVASVTDSGRTTEYVDSVKGRFTVSRDNAKNTAYLQMNNLKPEDTAIYYCAANTDYFQIRSLDLNTWGQGTQVTVSS
1.03

New cases:
Find the recorded P.E. binding ELISA OD belonging to FJ1427 P035MP02A10 (VHH, soluble VHH in periplasmic extract; also called clone nr) VHH: QLQLVESGGGLVQTGTSLRLSCAASGHTSRINAMGWFRQFPGKEREFVAAISRNGGSTVYVDSVKGRFTISRDNAKSTVYLQMNSLKPEDTAVYYCTATDAVGWTTRWMTADFGFWGQGTQVTVSS and report it.
0.359

Note, next up: FJ1427_P035MP02C07 (VHH, soluble VHH in periplasmic extract; also called clone nr) VHH: QVQLVESGGGLVQAGGSLRLSCAASGRTFSINTMGWFRQAPGKEREFVAAISRSGDSTVYVDSVKGRFTISRDNAKNTVYLQMNTLKPEDTAVYYCATTVAVGWTTRWSTIDFDSWGQGTQVTVSS
0.731
